# System name: Cytochrome P450 4A11 (Homo sapiens)
# Experiment notes: UV-visible spectral binding titration
pKd: −log10 of the molar value.
Measured quantity: pKd

> print(dat)
       line.notation                          system.name  reported.measurement
1  CCCCCCCCCCCC(=O)O  Cytochrome P450 4A11 (Homo sapiens)                  5.17

###

# System name: Cytochrome P450 4A11 (Homo sapiens)
# Sequence (Q02928 5-519): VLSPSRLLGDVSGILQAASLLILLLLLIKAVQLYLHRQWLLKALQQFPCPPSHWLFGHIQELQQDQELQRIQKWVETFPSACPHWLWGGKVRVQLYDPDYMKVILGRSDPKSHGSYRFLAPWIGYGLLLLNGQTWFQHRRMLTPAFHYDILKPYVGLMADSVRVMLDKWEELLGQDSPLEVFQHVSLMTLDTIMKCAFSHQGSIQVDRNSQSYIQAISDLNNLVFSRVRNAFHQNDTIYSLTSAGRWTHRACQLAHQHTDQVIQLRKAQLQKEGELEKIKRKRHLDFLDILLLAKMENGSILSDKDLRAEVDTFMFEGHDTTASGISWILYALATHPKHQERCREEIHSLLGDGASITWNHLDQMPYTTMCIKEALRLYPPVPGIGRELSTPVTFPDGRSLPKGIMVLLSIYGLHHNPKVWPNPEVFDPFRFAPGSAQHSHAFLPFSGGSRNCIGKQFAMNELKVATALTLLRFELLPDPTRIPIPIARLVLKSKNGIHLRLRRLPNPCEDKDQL
# Experiment notes: UV-visible spectral binding titration
Measured quantity: Kd (µM)

> print(dat)
        line.notation                          system.name  measured.quantity  reported.measurement
1  O=C(O)CCCCCCCCCCCO  Cytochrome P450 4A11 (Homo sapiens)                 Kd                   5.1
